Kindly state kon for each of the entries shown.
ASSAYED TARGET: T1, hK1 (human tissue kallikrein 1), recombinant (human, UniProt P06870 25-262)
T1 construct: Expressed in P. pastoris from KLK1 cDNA and purified; enzymatically active; also called KLK1; Recombinant (Pichia) Kallikrein
TEST DESCRIPTION: SPR
State the answer as a number, implicitly in M⁻¹ s⁻¹.

Q: Quick check: kon of M0138-C09 (Fab, V domains shown) VH: EVQLLESGGGLVQPGGSLRLSCAASGFTFSPYRMSWVRQAPGKGLEWVSVISPSGGITEYADSVKGRFTISRDNSKNTLYLQMNSLRAEDTAVYYCAKHERGSGYYVTPPAGAFDIWGQGTMVTVSS VL: AQSELTQPASVAGSPGQSITISCTGTSSDVGLYNFVSWYQQHPGKAPKLMIYDVSRRPSGVSNRFSASKSGTRASLTVSGLQAEDEADYYCSSYAGSNNYVFGTGTKVTVLG ?
A: 175000

Q: Also M0093-C02 (Fab, V domains shown) VH: EVQLLESGGGLVQPGGSLRLSCAASGFTFSWYAMHWVRQAPGKGLEWVSWISPSGGQTKYADSVKGRFTISRDNSKNTLYLQMNSLRAEDTAVYYCARAKVLRYFDWLLGGDAFDIWGQGTMVTVSS VL: DIQMTQSPGTLSLSPGDRATLSCRASQSVGSDYLAWYQQKPGQAPRLLIFAASTRATGIPDRFSGSGSATDFTLTISSLEPEDFAVYFCQQYASPPRTFGQGTKVEIKR , if possible.
A: 180000
